system: Hep3B hepatocellular carcinoma cell line; assay: MTS cell viability assay (NCI-60 methodology), GI50/LC50, Hep3B; type: cell-based; conditions: Homo sapiens, 48 h, Hep3B cells, 2 days incubation with compound
Mark fulfilled only for GI50 values smaller than 1000 nM; exact matches and larger values are not fulfilled.

[ask] Problem: For the compound CCCOc1ccc(-c2nc(NC(=O)c3ccc([N+](=O)[O-])s3)sc2Oc2ccc(C(F)(F)F)cc2)cc1 [Compound 5-26] , is GI50 under 1000 nM?
[reply] fulfilled

----------
Readings of LC50 for the listed compounds
test system: Hep3B hepatocellular carcinoma cell line; assay: MTS cell viability assay (NCI-60 methodology), GI50/LC50, Hep3B; assay type: cell-based; settings: Homo sapiens, 48 h, Hep3B cells, 2 days incubation with compound
Just the number please, in µM, no unit attached.

CCOc1ccc(-c2nc(NC(=O)c3ccc([N+](=O)[O-])s3)sc2Oc2ccccc2)cc1 [Compound 5-6]
4.35

[ask] Please report LC50 for the following compound: CCC(CC)Oc1ccccc1-c1nnc(NC(=O)Cc2ccc3nc(N)sc3c2)s1 [Compound 1-22]
[reply] 8.36

[ask] Fill in LC50 for record CCCOc1ccc(-c2nc(NC(=O)c3ccc([N+](=O)[O-])s3)sc2Oc2ccc(Br)cc2)cc1 [Compound 5-27]
[reply] 1.51

[ask] Give me measured LC50, please, for this compound: Cc1ccc(-c2nc(NC(=O)c3ccc([N+](=O)[O-])s3)sc2-c2ccc(Br)cc2)cc1 [Compound 6-2]
[reply] 1.94

----------
system: hepatocellular carcinoma cell line Hep3B; assay: Growth inhibition of Hep3B cells, 48 hr treatment, Hoechst 33342 nucleus count (GE InCell 2200); format: cell-based; details: Homo sapiens, Table 5, ratio of number of tumor cells treated with 10 μM compound to non-treated cells
Overview of reported viability at 10 µM across a group of compounds:
Provide the reading as a plain figure in %.

// below: answered compounds
CC(C)(C)c1ccc(-c2nc(NC(=O)c3ccc([N+](=O)[O-])s3)sc2Oc2ccccc2C(F)(F)F)cc1
34
CCCCc1ccc(-c2nc(NC(=O)c3ccc([N+](=O)[O-])s3)sc2Oc2ccccc2)cc1
31
CCOc1ccc(-c2nc(NC(=O)c3ccc([N+](=O)[O-])s3)sc2Oc2cccc(F)c2)cc1
35

[ask] Give reported viability at 10 µM value for Cc1cc(Oc2sc(NC(=O)c3ccc([N+](=O)[O-])s3)nc2-c2ccc(F)cc2)cc(C)c1Br
[reply] 30

----------
test system: Hep3B hepatocellular carcinoma cell line; assay: MTS cell viability assay (NCI-60 methodology), GI50/LC50, Hep3B; format: cell-based; settings: Homo sapiens, 48 h, Hep3B cells, 2 days incubation with compound
Measured attribute: GI50

CC(C)(C)c1ccc(-c2nc(NC(=O)c3ccc([N+](=O)[O-])s3)sc2-c2ccc(Cl)cc2)cc1
600 nM

[ask] Quickly give me recorded GI50 for CCCOc1ccc(-c2nnc(NC(=O)Cc3ccc4nc(N)sc4c3)s2)cc1
[reply] 600 nM

[ask] Recall and state the measured GI50 for O=C(Nc1nc(-c2ccc(Br)cc2)c(Oc2ccc(OC(F)(F)F)cc2)s1)c1ccc([N+](=O)[O-])s1 .
[reply] 3090 nM

[ask] // fetch GI50 given entry CCC(C)(C)c1ccc(-c2nc(NC(=O)c3ccc([N+](=O)[O-])s3)sc2-c2ccc(F)cc2F)cc1
[reply] 590 nM

[ask] Item Cc1ccc(-c2nc(NC(=O)c3ccc([N+](=O)[O-])s3)sc2-c2ccc(Br)cc2)cc1 : provide GI50
[reply] 1270 nM
